Molecular target: human glucagon-like peptide 1 receptor (GLP-1R) (human, UniProt P43220 24-463)
Sequence (P43220 24-463): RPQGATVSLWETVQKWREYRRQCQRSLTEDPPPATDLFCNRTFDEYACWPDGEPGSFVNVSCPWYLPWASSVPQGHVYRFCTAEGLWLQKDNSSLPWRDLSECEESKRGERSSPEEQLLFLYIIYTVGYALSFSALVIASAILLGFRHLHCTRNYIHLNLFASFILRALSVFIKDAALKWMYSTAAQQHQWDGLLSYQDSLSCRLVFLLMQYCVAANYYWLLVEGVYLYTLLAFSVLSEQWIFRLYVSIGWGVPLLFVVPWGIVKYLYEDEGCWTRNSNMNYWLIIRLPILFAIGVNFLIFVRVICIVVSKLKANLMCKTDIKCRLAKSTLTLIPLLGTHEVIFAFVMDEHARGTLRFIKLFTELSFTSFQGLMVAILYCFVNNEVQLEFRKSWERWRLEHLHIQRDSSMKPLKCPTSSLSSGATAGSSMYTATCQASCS
Experiment: cell-based or functional assay
Square brackets hold non-standard residues; d marks the D form. Side chains are listed from the residue outwards. Ends that are not written are not given here. * marks the point of attachment. isoGlu = used interchangeably with γ-Glu; Palmitoyl = CCCCCCCCCCCCCCCC(=O)*; Aib = CC(C)(N)C(=O)O
Measured Quantity: EC50 (nM) GLP-1R, cAMP formation
Give the value in nM but do not write nM after it.

Use the examples below as a reference point.
{"Binder": "H-H[Aib]QGTFTSDYSKYLDSKAAHDFVK([isoGlu-Palmitoyl])WLLSA-NH2 [Compound 36]", "Unit Label": "nM", "EC50 (nM) GLP-1R, cAMP formation": 0.191}
{"Binder": "HXQGTFTSDYSKYLDSKAAHDFVEWLLSA (Aib at position 2; K(Hexadecanoyl-isoGlu) at position 12; C-terminal amide (NH2)) [Compound 33]", "Unit Label": "nM", "EC50 (nM) GLP-1R, cAMP formation": 0.131}
{"Binder": "H-H[Aib]QGTFTSDYSKYLDSK([isoGlu-Palmitoyl])AAEDFVEWLLSA-NH2 [Compound 42]", "Unit Label": "nM", "EC50 (nM) GLP-1R, cAMP formation": 0.03}

Task: For the binder H[Aib]QGTFTSDYSKYLDSK([isoGlu-Palmitoyl])AAHEFVEWLLSA-NH2 [Compound 41] , report EC50 (nM) GLP-1R, cAMP formation.
Output: 0.13

Task: For the binder H-H[Aib]QGTFTSDYSKYLDSKAAHDFVEWLLK([isoGlu-Palmitoyl])A-NH2 [Compound 37] , report EC50 (nM) GLP-1R, cAMP formation.
Output: 0.207

Task: For the binder H-H[Aib]QGTFTSDYSKYLDEK([isoGlu-Palmitoyl])AAHDFVEWLLSA-NH2 [Compound 40] , report EC50 (nM) GLP-1R, cAMP formation.
Output: 0.2
